Source: patent US20230020729A1

targetEntity: T1, human Fc Receptor-Like 5 (FcRL5), full length, expressed on cells (human, UniProt Q96RD9 16-977)
T1 construct: also called CD307e; IRTA2
T1 sequence: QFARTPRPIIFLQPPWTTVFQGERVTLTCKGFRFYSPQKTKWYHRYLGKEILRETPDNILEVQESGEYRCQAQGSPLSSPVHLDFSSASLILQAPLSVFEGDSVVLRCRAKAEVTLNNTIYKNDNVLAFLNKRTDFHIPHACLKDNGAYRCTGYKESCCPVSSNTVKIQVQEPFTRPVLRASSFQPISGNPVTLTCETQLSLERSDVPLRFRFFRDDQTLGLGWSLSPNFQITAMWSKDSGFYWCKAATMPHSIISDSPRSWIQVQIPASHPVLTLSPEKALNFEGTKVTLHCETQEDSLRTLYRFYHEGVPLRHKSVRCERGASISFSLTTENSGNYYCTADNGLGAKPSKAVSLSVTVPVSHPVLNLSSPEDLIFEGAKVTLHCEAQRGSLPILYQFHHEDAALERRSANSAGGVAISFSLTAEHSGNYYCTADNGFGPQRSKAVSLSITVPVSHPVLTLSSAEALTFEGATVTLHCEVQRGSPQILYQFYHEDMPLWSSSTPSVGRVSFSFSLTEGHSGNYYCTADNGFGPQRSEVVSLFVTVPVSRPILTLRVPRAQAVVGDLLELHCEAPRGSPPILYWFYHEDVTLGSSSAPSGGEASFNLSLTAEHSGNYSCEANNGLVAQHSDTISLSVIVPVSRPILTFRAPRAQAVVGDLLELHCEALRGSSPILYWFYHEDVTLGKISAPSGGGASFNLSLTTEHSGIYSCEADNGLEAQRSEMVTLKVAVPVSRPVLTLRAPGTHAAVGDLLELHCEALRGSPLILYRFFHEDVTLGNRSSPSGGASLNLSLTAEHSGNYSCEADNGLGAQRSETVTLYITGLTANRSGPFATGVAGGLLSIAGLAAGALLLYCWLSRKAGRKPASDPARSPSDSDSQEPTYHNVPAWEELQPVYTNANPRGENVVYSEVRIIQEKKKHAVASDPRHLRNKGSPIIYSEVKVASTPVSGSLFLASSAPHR
procedureText: scFv phage: ELISA on His-tag FcRL5, flow cytometry on FcRL5-overexpressing 3T3 and Raji cells

{"columns": ["binder", "binding result"],
 "data": [
  ["ET200-029 scFv (scFv, VL-linker-VH; screened as scFv phage clone) scFv: QAVLTQPPSVSVAPGKTARVTCGGNNIGSESVHWYQQKPGQAPVLVIYYDTDRPSGIPERFSGSHSGTTATLTISRVEAGDEADYYCQVWDSSRDHVVFGGGTKLTVLGSRGGGGSGGGGSGGGGSLEMAQVQLVQSGGGVVQPGRSLRLSCAASGFTFSSYAMHWVRQAPGKGLEWVAVISYDGSNKYYADSVKGLFTISRDNSKNTLYLQMNSLRAEDTAVYYCARSYFTSGFYDYWGQGTLVTVSS", "binds"],
  ["ET200-023 scFv (scFv, VL-linker-VH; screened as scFv phage clone) scFv: LPVLTQPPSVSVAPGKTARITCGGNNIGSKSVHWYQQKPGQAPVLVVYADSDRPSGIPERFSGSNSGNTATLTISRVEAGDEADYYCQVWDSSSYHNYVFGTGTKVTVLGSRGGGGSGGGGSGGGGSLEMAEVQLVQSGAEVKKPGASVKVSCKASGYTFTSYGISWVRQAPGQGLEWMGWISAYNGNTNYAQKLQGRVTMTTDTSTSTAYMELSSLRSEDTAMYYCARYWGFGVSDRWGQGTLVTVSS", "binds"],
  ["ET200-005 scFv (scFv, VL-linker-VH; screened as scFv phage clone) scFv: QPVLTQPPSVSVVPGKTARITCGGKNIGSKSVHWYQQKPGQAPVVVIHYDSDRPSGIPERFSGSNSGNTATLTISRVEAGDEADYYCQVWDSSSDHPYVFGTGTKVTVLGSRGGGGSGGGGSGGGGSLEMAQVQLVQSGAEVKKPGASVKVSCKASGYTFTNYGISWVRQAPGQGLEWMGWISAYNGNTNYAHKLQGRVTMTTDTSTSTANMELRSLRPDDTAVYYCARSYFGSHDYWGQGTLVTVSS", "binds"]
]}
